Reference source: ChEMBL document CHEMBL4033663

test system: A549; assay: Antiproliferative activity against human A549 cells after 48 hrs by MTT assay; assay type: functional, cell-based; settings: A549, 48 h
Reported values of IC50 for individual entries
Lab book: enter the figure in µM, no units written.

// worked examples, IC50 included
compound: CCOc1ccc(-n2nncc2CN2C(=O)C3(C(C#N)=C(N)Oc4c3c3nc5ccccc5nc3c3ccccc43)c3ccccc32)cc1 (centres undefined)
readoutUnits: µM
IC50: 25.2
--
compound: Cc1cccc(-n2nncc2CN2C(=O)C3(C(C#N)=C(N)Oc4c(N)cc5nc6ccccc6nc5c43)c3ccccc32)c1 (centres undefined)
readoutUnits: µM
IC50: 12.3
--
compound: Cc1ccc(-n2nncc2CN2C(=O)C3(C(C#N)=C(N)Oc4c(N)cc5nc6ccccc6nc5c43)c3ccccc32)cc1Cl (centres undefined)
readoutUnits: µM
IC50: 11.8
--
compound: N#CC1=C(N)Oc2c(N)cc3nc4ccccc4nc3c2C12C(=O)N(Cc1cnnn1-c1ccccc1Cl)c1ccccc12 (centres undefined)
readoutUnits: µM
IC50: 29.8
--
compound: Cc1cccc(-n2nncc2CN2C(=O)C3(C(C#N)=C(N)Oc4c3c3nc5ccccc5nc3c3ccccc43)c3ccccc32)c1 (centres undefined)
readoutUnits: µM
IC50: 39.6
--
compound: CCc1ccccc1-n1nncc1CN1C(=O)C2(C(C#N)=C(N)Oc3c(N)cc4nc5ccccc5nc4c32)c2ccccc21 (centres undefined)
readoutUnits: µM
IC50: 24.6
--
compound: Cc1cc(C)c(-n2nncc2CN2C(=O)C3(C(C#N)=C(N)Oc4c(N)cc5nc6ccccc6nc5c43)c3ccccc32)c(C)c1 (centres undefined)
readoutUnits: µM
IC50: 12.7
--
compound: COc1ccc(OC)c(-n2nncc2CN2C(=O)C3(C(C#N)=C(N)Oc4c(N)cc5nc6ccccc6nc5c43)c3ccccc32)c1 (centres undefined)
readoutUnits: µM
IC50: 28.1
--
compound: N#CC1=C(N)Oc2c(c3nc4ccccc4nc3c3ccccc23)C12C(=O)N(Cc1cnnn1-c1ccc(Br)cc1)c1ccccc12 (centres undefined)
readoutUnits: µM
IC50: 44.3
--
compound: N#CC1=C(N)Oc2c(N)cc3nc4ccccc4nc3c2C12C(=O)N(Cc1cnnn1-c1cccc(Br)c1)c1ccccc12 (centres undefined)
readoutUnits: µM
IC50: 18.9

Asked: Record Cc1cc(C)cc(-n2nncc2CN2C(=O)C3(C(C#N)=C(N)Oc4c(N)cc5nc6ccccc6nc5c43)c3ccccc32)c1 (centres undefined) : what is its IC50 with A549?
Given back: 31.2

Asked: Now the compound N#CC1=C(N)Oc2c(c3nc4ccccc4nc3c3ccccc23)C12C(=O)N(Cc1cnnn1-c1ccccc1Cl)c1ccccc12 (centres undefined)
Given back: 42.6

Asked: Now the same for N#CC1=C(N)Oc2c(c3nc4ccccc4nc3c3ccccc23)C12C(=O)N(Cc1cnnn1-c1cccc(S(N)(=O)=O)c1)c1ccccc12 (centres undefined)
Given back: 44.2

Asked: Same read-out for N#CC1=C(N)Oc2c(N)cc3nc4ccccc4nc3c2C12C(=O)N(Cc1cnnn1-c1ccc(F)c(Cl)c1)c1ccccc12 (centres undefined) ?
Given back: 43.4

Asked: // repeat for COc1ccccc1-n1nncc1CN1C(=O)C2(C(C#N)=C(N)Oc3c(N)cc4nc5ccccc5nc4c32)c2ccccc21 (centres undefined) and report
Given back: 37.5

---

system: HepG2; test: Antiproliferative activity against human HepG2 cells after 48 hrs by MTT assay; format: functional, cell-based; conditions: HepG2, 48 h
Each entry below carries its recorded IC50.

compound: N#CC1=C(N)Oc2c(c3nc4ccccc4nc3c3ccccc23)C12C(=O)N(Cc1cnnn1-c1cccc(Br)c1)c1ccccc12 (configuration not stated)
result: > 50 µM

With those in mind, consider the next compound.
Asked: # query: IC50 | item Cc1cc(C)cc(-n2nncc2CN2C(=O)C3(C(C#N)=C(N)Oc4c(N)cc5nc6ccccc6nc5c43)c3ccccc32)c1 (configuration not stated) | system: HepG2
Given back: > 50 µM
